Tested on: Plasmodium falciparum Dd2 strain (multidrug-resistant)
Test Description: Antiplasmodial fluorescence-based SyBr Green assay, Dd2 strain
Format: cell-based
Test Parameters: Plasmodium falciparum; multidrug-resistant Dd2 strain; 72 hrs; mean of at least two experiments in triplicate; read-out: Antiplasmodial IC50, Dd2 strain
pIC50: −log10 of the molar value.
Param threshold (8) applies to pIC50; output Condition met when value >= threshold, Condition not met when value < threshold.

Example cases with answers are listed next.
{"columns": ["Compound", "Qualitative Label"],
 "data": [
  ["Clc1ccc2c(NCCCNC34CC5CC(CC(C5)C3)C4)ccnc2c1", "Condition met"],
  ["CCN(CC)CCNc1c(C)cnc2cc(Cl)ccc12", "Condition not met"],
  ["O=C1C(O)=C([C@H]2CC[C@H](c3ccc(Cl)cc3)CC2)C(=O)c2ccccc21 [Atovaquone, reference compound]", "Condition met"],
  ["CCN(CC)CCCNc1c(C)cnc2cc(Cl)ccc12", "Condition not met"]
]}

q: Evaluate C=C[C@H]1C[N@@]2CC[C@H]1C[C@H]2[C@H](O)c1ccnc2ccc(OC)cc12 [Quinine, reference compound] : pIC50 at minimum 8?
a: Condition not met

q: Decide: pIC50 of Cc1cnc2ccc(Cl)cc2c1NCCCNC(C)(C)C >= 8?
a: Condition not met

---

Tested on: Plasmodium falciparum D6 strain (chloroquine sensitive)
Test Description: Antiplasmodial fluorescence-based SyBr Green assay, D6 strain
Assay type: cell-based
Test Parameters: Plasmodium falciparum, D6, 72 h; read-out: Antiplasmodial IC50, D6 strain
Can you tell me IC50 for the items I'm about to list?
The answer consists of two parts: a number and, after it, its unit.

Some compounds with recorded IC50:
{"columns": ["Compound", "IC50"],
 "data": [
  ["Cc1cnc2ccc(Cl)cc2c1NCCCNC(C)(C)C", "94.8 nM"],
  ["C=C[C@H]1C[N@@]2CC[C@H]1C[C@H]2[C@H](O)c1ccnc2ccc(OC)cc12 [Quinine, reference compound]", "19 nM"]
]}

// input: 4 compounds below; output: IC50 for each
1. CCN(CC)CCCNC1=CCNc2cc(Cl)ccc21 [AQ-13, reference compound]
2. Cc1cnc2cc(Cl)ccc2c1N1CCN(CCCN2CCN(c3c(C)cnc4cc(Cl)ccc34)CC2)CC1
3. CCN(CC)CCCC(C)Nc1c(C)cnc2cc(Cl)ccc12 (stereo not shown) [Sontochin, 3-methyl-chloroquine, reference compound]
4. Cc1cnc2cc(Cl)ccc2c1NCCCNC(C)(C)C

a:
1: 7.2 nM; 2: 4.6 nM; 3: 8.6 nM; 4: 6.2 nM

---

Tested on: Plasmodium falciparum 7G8 strain (multidrug-resistant)
Test Description: Antiplasmodial fluorescence-based SyBr Green assay, 7G8 strain
Assay type: cell-based
Test Parameters: Plasmodium falciparum, 7G8, 72 h, read-out: Antiplasmodial IC50, 7G8 strain
Measurement Type: IC50 (nM)
Give bare numbers, in nM.

q: GET /values?readout=IC50&item= CCN(CC)CCCC(C)Nc1ccnc2cc(Cl)ccc12 (stereo not shown) [Chloroquine, reference compound]
a: 55

---

Tested on: P. falciparum strains (D6, Dd2, Tm90.C2B, 7G8)
Test Description: Antiplasmodial SyBr Green assay, summary across strains
Assay type: cell-based, Plasmodium falciparum
Test Parameters: Plasmodium falciparum; range over strains as worded in text; read-out: IC50 values ranging, drug resistant strains of P. falciparum
Measurement Type: IC50

q: What measured IC50 goes with CCN(CC)CCCC(C)Nc1c(C)cnc2cc(Cl)ccc12 (stereo not shown) [Sontochin, 3-methyl-chloroquine, reference compound] ?
a: 0.0086 to 0.0138 µM
